- System: human red blood cells
- METHOD DESCRIPTION: Hemolytic assay
- Format: cell-based
- SETTINGS: 10% hemolytic activity, mean n = 2
MEASUREMENT LABEL: Hemolysis HC10

# count of solved cases: 3
O=C(NCCCNCCCCCCCCCCNCCCNC(=O)c1c[nH]c2c(F)cccc12)c1c[nH]c2c(F)cccc12 [Compound 16e]    >38 µM
O=C(NCCCNCCCCCCCCNCCCNC(=O)c1c[nH]c2ccc(Br)cc12)c1c[nH]c2ccc(Br)cc12 [Compound 13d]    >34 µM
COc1cccc2c(C(=O)NCCCNCCCCNCCCNC(=O)c3c[nH]c4c(OC)cccc34)c[nH]c12 [Compound 17a]    >41 µM

# compound COc1ccc2[nH]cc(C(=O)NCCCNCCCCCCCCNCCCNC(=O)c3c[nH]c4ccc(OC)cc34)c2c1 [Compound 14d] ; its Hemolysis HC10 = >38 µM

----------
- Tested on: human red blood cells
- METHOD DESCRIPTION: Hemolytic assay
- Assay type: cell-based
- SETTINGS: 10% hemolytic activity, mean n = 2
Below: a set of entries, each annotated with reported Hemolysis HC10.

Example compounds with recorded Hemolysis HC10:
Cc1ccc2[nH]cc(C(=O)NCCCNCCCCNCCCNC(=O)c3c[nH]c4ccc(C)cc34)c2c1 [Compound 15a]    >43 µM
COc1cccc2c(C(=O)NCCCNCCCCCCCCCCCCNCCCNC(=O)c3c[nH]c4c(OC)cccc34)c[nH]c12.O=C(O)C(F)(F)F.O=C(O)C(F)(F)F [Compound 17f]    >36 µM
O=C(NCCCNCCCCCCCCCCNCCCNC(=O)c1c[nH]c2ccccc12)c1c[nH]c2ccccc12.O=C(O)C(F)(F)F.O=C(O)C(F)(F)F [Compound 12e]    >40 µM

Next item in the queue.
Notebook: Cc1cccc2c(C(=O)NCCCNCCCCCCCNCCCNC(=O)c3c[nH]c4c(C)cccc34)c[nH]c12 [Compound 18c] , Hemolysis HC10 read as >41 µM

----------
Reported MIC Kp values for a set of molecules
- Test system: K. pneumoniae ATCC 700603
- METHOD DESCRIPTION: MIC, broth microdilution (CO-ADD), K. pneumoniae
- SETTINGS: top dose 32 µg/mL
Marks after values point to notes of the source that are not given here.

Would you please look over these solved cases?
COc1cccc2c(C(=O)NCCCNCCCCCCCCNCCCNC(=O)c3c[nH]c4c(OC)cccc34)c[nH]c12 [Compound 17d]    >38 µM
O=C(NCCCNCCCCCCCCCCNCCCNC(=O)c1c[nH]c2ccc(Br)cc12)c1c[nH]c2ccc(Br)cc12 [Compound 13e]    >34 µM
Cc1ccc2[nH]cc(C(=O)NCCCNCCCCCCNCCCNC(=O)c3c[nH]c4ccc(C)cc34)c2c1 [Compound 15b]    >41 µM
COc1ccc2[nH]cc(C(=O)NCCCNCCCCCCCCNCCCNC(=O)c3c[nH]c4ccc(OC)cc34)c2c1 [Compound 14d]    >38 µM
O=C(NCCCNCCCCNCCCNC(=O)c1c[nH]c2ccccc12)c1c[nH]c2ccccc12 [Compound 12a]    >45 ^j µM

Entry under test: O=C(NCCCNCCCCCCCNCCCNC(=O)c1c[nH]c2ccccc12)c1c[nH]c2ccccc12.O=C(O)C(F)(F)F.O=C(O)C(F)(F)F [Compound 12c] . Its MIC Kp was >42 µM

get_value(item= COc1ccc2[nH]cc(C(=O)NCCCNCCCCCCCNCCCNC(=O)c3c[nH]c4ccc(OC)cc34)c2c1.O=C(O)C(F)(F)F.O=C(O)C(F)(F)F [Compound 14c] , readout=MIC Kp) returns >39 µM

MIC Kp recorded for this molecule, O=C(NCCCNCCCCNCCCNC(=O)c1c[nH]c2c(F)cccc12)c1c[nH]c2c(F)cccc12 [Compound 16a] , is >43 µM

Field MIC Kp (entry COc1cccc2c(C(=O)NCCCNCCCCCCCCCCNCCCNC(=O)c3c[nH]c4c(OC)cccc34)c[nH]c12.O=C(O)C(F)(F)F.O=C(O)C(F)(F)F [Compound 17e] ) reads >37 µM

Entry O=C(NCCCNCCCCCCCCCCCCNCCCNC(=O)c1c[nH]c2c(F)cccc12)c1c[nH]c2c(F)cccc12.O=C(O)C(F)(F)F.O=C(O)C(F)(F)F [Compound 16f] ; MIC Kp = >37 µM

The reported MIC Kp of the molecule O=C(NCCCNCCCCCCCCNCCCNC(=O)c1c[nH]c2ccc(Br)cc12)c1c[nH]c2ccc(Br)cc12 [Compound 13d] was >34 µM

Value of MIC Kp reported for the molecule O=C(NCCCNCCCCCCCCCCCCNCCCNC(=O)c1c[nH]c2ccc(Br)cc12)c1c[nH]c2ccc(Br)cc12.O=C(O)C(F)(F)F.O=C(O)C(F)(F)F [Compound 13f] is ≤0.25 µM

The molecule identified as O=C(NCCCNCCCCCCCCNCCCNC(=O)c1c[nH]c2c(F)cccc12)c1c[nH]c2c(F)cccc12 [Compound 16d] registered its MIC Kp at >40 µM

----------
- Test system: C. neoformans ATCC 208821
MEASUREMENT LABEL: MIC

These recorded examples may help you get a feel for the data.
O=C(NCCCNCCCCCCNCCCNC(=O)c1c[nH]c2ccccc12)c1c[nH]c2ccccc12.O=C(O)C(F)(F)F.O=C(O)C(F)(F)F [Compound 12b]    ≤ 0.34 µM
Cc1cccc2c(C(=O)NCCCNCCCCCCCCCCCCNCCCNC(=O)c3c[nH]c4c(C)cccc34)c[nH]c12.O=C(O)C(F)(F)F.O=C(O)C(F)(F)F [Compound 18f]    ≤ 0.29 µM
Cc1ccc2[nH]cc(C(=O)NCCCNCCCCNCCCNC(=O)c3c[nH]c4ccc(C)cc34)c2c1 [Compound 15a]    ≤ 0.34 µM
Cc1cccc2c(C(=O)NCCCNCCCCCCNCCCNC(=O)c3c[nH]c4c(C)cccc34)c[nH]c12 [Compound 18b]    ≤ 0.32 µM
O=C(NCCCNCCCCCCCCCCCCNCCCNC(=O)c1c[nH]c2ccccc12)c1c[nH]c2ccccc12.O=C(O)C(F)(F)F.O=C(O)C(F)(F)F [Compound 12f]    ≤ 0.3 µM
O=C(NCCCNCCCCCCCCCCCCNCCCNC(=O)c1c[nH]c2c(F)cccc12)c1c[nH]c2c(F)cccc12.O=C(O)C(F)(F)F.O=C(O)C(F)(F)F [Compound 16f]    ≤ 0.29 µM

--- query ---
Cc1ccc2[nH]cc(C(=O)NCCCNCCCCCCCNCCCNC(=O)c3c[nH]c4ccc(C)cc34)c2c1 [Compound 15c] yielded MIC of ≤ 0.32 µM

----------
- Tested on: K. pneumoniae ATCC 700603
- METHOD DESCRIPTION: MIC, broth microdilution (CO-ADD), K. pneumoniae
- SETTINGS: top dose 32 µg/mL
MEASUREMENT LABEL: MIC Kp

Here are 8 compounds together with their reported answers.
O=C(NCCCNCCCCCCCCCCCCNCCCNC(=O)c1c[nH]c2ccccc12)c1c[nH]c2ccccc12.O=C(O)C(F)(F)F.O=C(O)C(F)(F)F [Compound 12f]    >39 µM
COc1cccc2c(C(=O)NCCCNCCCCCCCCCCCCNCCCNC(=O)c3c[nH]c4c(OC)cccc34)c[nH]c12.O=C(O)C(F)(F)F.O=C(O)C(F)(F)F [Compound 17f]    >36 µM
O=C(NCCCNCCCCCCCCNCCCNC(=O)c1c[nH]c2ccccc12)c1c[nH]c2ccccc12.O=C(O)C(F)(F)F.O=C(O)C(F)(F)F [Compound 12d]    >41 µM
Cc1cccc2c(C(=O)NCCCNCCCCCCNCCCNC(=O)c3c[nH]c4c(C)cccc34)c[nH]c12 [Compound 18b]    >41 µM
Cc1ccc2[nH]cc(C(=O)NCCCNCCCCCCCCNCCCNC(=O)c3c[nH]c4ccc(C)cc34)c2c1 [Compound 15d]    >40 µM
O=C(NCCCNCCCCCCCNCCCNC(=O)c1c[nH]c2c(F)cccc12)c1c[nH]c2c(F)cccc12 [Compound 16c]    >40 µM
O=C(NCCCNCCCCCCCCCCNCCCNC(=O)c1c[nH]c2c(F)cccc12)c1c[nH]c2c(F)cccc12 [Compound 16e]    >38 µM
Cc1ccc2[nH]cc(C(=O)NCCCNCCCCCCCCCCCCNCCCNC(=O)c3c[nH]c4ccc(C)cc34)c2c1.O=C(O)C(F)(F)F.O=C(O)C(F)(F)F [Compound 15f]    >37.3 µM

Looking up O=C(NCCCNCCCCCCNCCCNC(=O)c1c[nH]c2ccc(Br)cc12)c1c[nH]c2ccc(Br)cc12 [Compound 13b] , I see its MIC Kp listed as >35 µM

compound Cc1cccc2c(C(=O)NCCCNCCCCNCCCNC(=O)c3c[nH]c4c(C)cccc34)c[nH]c12 [Compound 18a] , MIC Kp observed: >43 µM

For this compound ( Cc1cccc2c(C(=O)NCCCNCCCCCCCCCCCCNCCCNC(=O)c3c[nH]c4c(C)cccc34)c[nH]c12.O=C(O)C(F)(F)F.O=C(O)C(F)(F)F [Compound 18f] ), measured MIC Kp is >37 µM

Record summary for O=C(NCCCNCCCCCCNCCCNC(=O)c1c[nH]c2ccccc12)c1c[nH]c2ccccc12.O=C(O)C(F)(F)F.O=C(O)C(F)(F)F [Compound 12b] : reported MIC Kp = >43 µM

Reported MIC Kp of Cc1ccc2[nH]cc(C(=O)NCCCNCCCCCCCNCCCNC(=O)c3c[nH]c4ccc(C)cc34)c2c1 [Compound 15c] : >41 µM
